- Measurement target: Mitogen-activated protein kinase 3 (Homo sapiens)
- Condition summary: at 1 µM
Test readout: inhibition (%)
Give your result in % as a bare value.

Known results for compounds:
O=C(Nc1ccc(Oc2ccc3[nH]c(NC(=O)c4ccccc4)nc3c2)cc1)Nc1cc(C(F)(F)F)ccc1F	3.58
NC(=O)c1cc(-c2ccc(F)cc2)cc(-c2ccncc2)c1N	3.05
NS(=O)(=O)c1ccc(N/N=C2\C(=O)Nc3ccc(C(=O)NCCCn4ccnc4)cc32)cc1	15.9

Form field inhibition, entry Fc1ccc(-c2c(-c3ccncc3)nc3n2CCS3)cc1 : 2.25

Form field inhibition, entry CCC(=O)Nc1ccc(C)c(-c2ccc(C(=O)NCC3CC3)cc2)c1 : 1.57

Form field inhibition, entry COc1cc(Nc2ncc(-c3ccccc3)o2)cc(OC)c1OC : 1.29

----------
- Measurement target: Aurora kinase A (Homo sapiens) (UniProt O14965);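 note: values are mean percent inhibition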
- Sequence (whole entry): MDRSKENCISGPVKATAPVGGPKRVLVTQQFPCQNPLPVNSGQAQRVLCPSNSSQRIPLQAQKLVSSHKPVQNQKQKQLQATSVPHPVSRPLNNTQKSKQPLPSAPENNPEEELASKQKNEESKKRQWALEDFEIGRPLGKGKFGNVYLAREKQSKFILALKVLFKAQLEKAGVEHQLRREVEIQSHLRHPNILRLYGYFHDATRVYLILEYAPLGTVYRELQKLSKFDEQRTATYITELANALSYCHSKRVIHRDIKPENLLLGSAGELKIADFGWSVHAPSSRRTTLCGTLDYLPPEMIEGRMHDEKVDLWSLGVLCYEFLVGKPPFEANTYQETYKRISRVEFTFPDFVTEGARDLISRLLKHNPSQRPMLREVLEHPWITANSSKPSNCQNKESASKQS
- Condition summary: at 1 µM
Each entry below carries its reported inhibition.
Give your result in % as a bare value.

Known results for molecules:
CS(=O)(=O)CCNCc1ccc(-c2ccc3ncnc(Nc4ccc(OCc5ccccc5)c(Br)c4)c3c2)o1	-1.79
COc1cccc(-n2cnc3c(N/N=C/c4ccncc4)ncnc32)c1	13
CN(C)CCCNc1nccc(-c2c(-c3ccc(F)cc3)nn3cc(C(F)(F)F)ccc23)n1	6.4

Form field inhibition, entry O=C1Nc2ccccc2/C1=C/Nc1ccc(-n2cncn2)cc1 : 36.3

----------
- Measurement target: Mitogen-activated protein kinase 3 (Homo sapiens)
- Condition summary: at 0.1 µM
Test readout: inhibition (%)
Give your result in % as a bare value.

O=C1Nc2ccc(I)cc2C1=Cc1cc(Br)c(O)c(Br)c1	3.73

Form field inhibition, entry Fc1ccc(-c2c(-c3ccncc3)nc3n2CCS3)cc1 : 2.96

Form field inhibition, entry CCC(=O)Nc1ccc(C)c(-c2ccc(C(=O)NCC3CC3)cc2)c1 : 2.94

Form field inhibition, entry COc1cc2ncn(-c3cc(OCc4ccccc4C(F)(F)F)c(C(C)=O)s3)c2cc1OC : 3.61

Form field inhibition, entry COc1cccc(-n2cnc3c(N/N=C/c4ccncc4)ncnc32)c1 : 0.83

Form field inhibition, entry Fc1ccc(-c2nc3n(c2-c2ccncc2)CCS3)cc1 : 2.96

Form field inhibition, entry COc1cc(Nc2ncc(-c3ccccc3)o2)cc(OC)c1OC : 0.83

Form field inhibition, entry C/C(Nc1ccc(S(N)(=O)=O)cc1)=C1/C(=O)Nc2ccccc21 : 2.55

Form field inhibition, entry O=C(NCC1CC1)c1ccc(-c2cccc(C(=O)NC3CC3)c2)cc1 : 1.22
